Source: ChEMBL document CHEMBL4038346

Target sequence: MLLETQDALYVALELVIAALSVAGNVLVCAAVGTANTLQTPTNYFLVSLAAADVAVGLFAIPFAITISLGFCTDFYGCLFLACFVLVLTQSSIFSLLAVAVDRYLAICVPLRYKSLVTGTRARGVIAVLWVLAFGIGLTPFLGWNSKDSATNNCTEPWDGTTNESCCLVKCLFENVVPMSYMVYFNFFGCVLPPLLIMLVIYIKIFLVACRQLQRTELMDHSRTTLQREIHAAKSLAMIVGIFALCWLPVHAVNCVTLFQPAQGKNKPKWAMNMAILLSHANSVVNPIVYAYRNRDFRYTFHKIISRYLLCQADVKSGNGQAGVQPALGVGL
Parameter measured: Ki (nM)

>>> recorded_value("CC(=O)Nc1cc(-c2ccccc2)cc(-c2ccccc2)n1")
51.2
